- System: CYP (isoforms not named)
- test_name: CYP profile
- Assay type: in vitro ADME
Reported IC50 values follow for various compounds
measured_quantity: IC50

[[record]]
compound = "Cn1cnc(S(=O)(=O)N2C[C@@H]3[C@H](C2)[C@@]3(CNC(=O)c2ccc(Cl)cc2Cl)c2ccccn2)c1 [Compound 10]"
assay_value = "> 30 µM"

[[record]]
compound = "Cn1cnc(S(=O)(=O)N2C[C@@H]3[C@H](C2)[C@@]3(CNC(=O)c2ccccc2C(F)(F)F)c2ccccn2)c1 [Compound 11]"
assay_value = "> 30 µM"


----------
- assay_system: GlyT2 (Homo sapiens, UniProt Q9Y345)
- Sequence (Q9Y345 whole entry, species assumed): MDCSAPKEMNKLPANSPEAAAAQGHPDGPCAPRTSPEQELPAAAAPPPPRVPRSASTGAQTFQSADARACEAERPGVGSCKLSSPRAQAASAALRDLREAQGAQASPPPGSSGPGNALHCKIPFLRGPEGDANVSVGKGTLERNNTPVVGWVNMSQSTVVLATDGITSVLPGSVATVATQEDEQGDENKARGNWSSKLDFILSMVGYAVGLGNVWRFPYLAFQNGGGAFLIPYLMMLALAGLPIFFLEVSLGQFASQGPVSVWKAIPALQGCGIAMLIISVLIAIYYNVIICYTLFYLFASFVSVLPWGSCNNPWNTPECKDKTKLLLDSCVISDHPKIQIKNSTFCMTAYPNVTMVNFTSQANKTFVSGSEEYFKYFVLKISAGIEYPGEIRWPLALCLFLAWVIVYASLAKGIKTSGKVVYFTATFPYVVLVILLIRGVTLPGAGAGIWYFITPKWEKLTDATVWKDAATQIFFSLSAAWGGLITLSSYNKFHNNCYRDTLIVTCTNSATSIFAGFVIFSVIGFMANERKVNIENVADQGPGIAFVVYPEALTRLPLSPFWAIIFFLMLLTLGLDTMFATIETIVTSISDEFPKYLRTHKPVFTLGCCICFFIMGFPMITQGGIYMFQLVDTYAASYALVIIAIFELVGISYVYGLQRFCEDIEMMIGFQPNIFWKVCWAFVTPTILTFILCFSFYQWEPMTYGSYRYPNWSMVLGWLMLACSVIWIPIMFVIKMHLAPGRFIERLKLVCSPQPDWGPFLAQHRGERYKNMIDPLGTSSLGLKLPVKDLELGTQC
- test_name: GlyT2 inhibition
measured_quantity: IC50

[[record]]
compound = "Cn1cnc(S(=O)(=O)N2C[C@@H]3[C@H](C2)[C@@]3(CNC(=O)c2ccccc2C(F)(F)F)CC2CC2)c1 [Compound 12d]"
measured_quantity = "IC50"
assay_value = "> 30 µM"

